Details: human gut metagenome, 24 h, 2 µM; further: call rule not given here
QUANTITY_NAME: Bacterial Biotransformation

Sample records with Bacterial Biotransformation:
Enquiry: Bench note: what Bacterial Biotransformation did CN1CCOC(c2ccccc2)c2ccccc2C1 (stereo not drawn) show?
Return: Compound metabolized

Enquiry: Given the entry CCCc1nn(C)c2c(=O)[nH]c(-c3cc(S(=O)(=O)N4CCN(C)CC4)ccc3OCC)nc12.O=C(O)CC(O)(CC(=O)O)C(=O)O [SILDENAFIL CITRATE] , report its measured Bacterial Biotransformation.
Return: Compound NOT metabolized

Enquiry: What measured Bacterial Biotransformation goes with CN1CC(=O)N2[C@H](c3ccc4c(c3)OCO4)c3[nH]c4ccccc4c3C[C@@H]2C1=O ?
Return: Compound metabolized

Enquiry: Tell me the measured Bacterial Biotransformation of CN1C(C(=O)Nc2ccccn2)=C(O)c2sccc2S1(=O)=O , please.
Return: Compound NOT metabolized

Enquiry: Requested field: Bacterial Biotransformation. Item: COC(=O)[C@H]1[C@H]2C[C@@H]3c4[nH]c5cc(OC)ccc5c4CCN3C[C@H]2C[C@@H](OC(=O)c2cc(OC)c(OC)c(OC)c2)[C@@H]1OC
Return: Compound NOT metabolized

Others:
Enquiry: Name the recorded Bacterial Biotransformation for COc1ccccc1N1CCN(CC(O)COc2cccc3ccccc23)CC1 (stereo not drawn) .
Return: Compound NOT metabolized

Enquiry: Can you look up the measured Bacterial Biotransformation of CCCCC1=NC2(CCCC2)C(=O)N1Cc1ccc(-c2ccccc2-c2nnn[nH]2)cc1 for me?
Return: Compound metabolized

Enquiry: What value of Bacterial Biotransformation has been recorded for this entry: CC(O)(CS(=O)(=O)c1ccc(F)cc1)C(=O)Nc1ccc(C#N)c(C(F)(F)F)c1 (stereo not drawn) [BICALUTAMIDE]
Return: Compound NOT metabolized

Enquiry: Entry under review: Cc1ccc(/C(=C\CN2CCCC2)c2ccccn2)cc1 . Reported Bacterial Biotransformation?
Return: Compound NOT metabolized

Enquiry: Endpoint output: Bacterial Biotransformation of COc1c(C)c2c(c(O)c1C/C=C(\C)CCC(=O)OCCN1CCOCC1)C(=O)OC2 [MYCOPHENOLATE MOFETIL] . Value?
Return: Compound metabolized

Enquiry: Endpoint output: Bacterial Biotransformation of CC[C@@H](CO)NC(=O)[C@@H]1C=C2c3cccc4c3c(cn4C)C[C@H]2N(C)C1.O=C(O)/C=C\C(=O)O [METHYSERGIDE MALEATE] . Value?
Return: Compound NOT metabolized

Enquiry: // lookup Bacterial Biotransformation for Nc1ccc(/N=N/c2ccccc2)c(N)n1
Return: Compound metabolized

Enquiry: May I ask what Bacterial Biotransformation has been recorded for CN(C(=O)CN(CCO)CC(=O)N(C)C(C)(C)Cc1ccccc1)C(C)(C)Cc1ccccc1 ?
Return: Compound metabolized

Enquiry: What measured Bacterial Biotransformation goes with CCCC1O[C@@H]2C[C@H]3[C@@H]4CCC5=CC(=O)C=C[C@]5(C)[C@H]4[C@@H](O)C[C@]3(C)[C@]2(C(=O)CO)O1 (stereo partly drawn) [BUDESONIDE] ?
Return: Compound metabolized

Enquiry: What does the data say about its Bacterial Biotransformation? Entry: C#C[C@]1(O)CC[C@H]2[C@@H]3CCC4=CC(=O)CC[C@@H]4[C@H]3CC[C@@]21CC
Return: Compound NOT metabolized

Enquiry: Would you kindly share the measured Bacterial Biotransformation for CC(C)NCC(O)COc1ccc(COCCOC(C)C)cc1.CC(C)NCC(O)COc1ccc(COCCOC(C)C)cc1.O=C(O)/C=C/C(=O)O (stereo not drawn) [BISOPROLOL FUMARATE] ?
Return: Compound metabolized

Enquiry: Sample OCCN1CCN(CCCN2c3ccccc3Sc3ccc(C(F)(F)F)cc32)CC1 — what was its Bacterial Biotransformation?
Return: Compound metabolized

Enquiry: Query: Bacterial Biotransformation; subject: COC(=O)C1=C(C)NC(C)=C(C(=O)OC(C)C)C1c1cccc2nonc12 (stereo not drawn)
Return: Compound metabolized

Enquiry: Form field: reported Bacterial Biotransformation of COCCc1ccc(OCC(O)CNC(C)C)cc1.COCCc1ccc(OCC(O)CNC(C)C)cc1.O=C(O)C(O)C(O)C(=O)O (stereo not drawn) [METOPROLOL TARTRATE]
Return: Compound metabolized
